System: Sagittaria pygmaea, L.
Test: Preemergence weed control under flooded paddy conditions, SAGPY (Arrowhead (Pygmaea)); also: meaning of each grade not given here
Format: in vivo
Conditions: Rate 0.0620 kg/ha; preemergence weeds, flooded paddy; rated three to four weeks after treatment
herbicidal effect rating, SAGPY under 3 gets 1 (yes), anything at or over 3 gets 0 (no).

input: Confirm or reject: herbicidal effect rating, SAGPY of Cn1c(C(F)(F)F)cc(=O)n(-c2ccc3snc(C(=O)NS(=O)(=O)CCl)c3c2)c1=O [Example 334] lies strictly below 3
output: 1 (yes)

----------
Test system: Oryza sativa, (L.) Tebonnet
Assay: Rice tolerance to post-transplant applications under flooded paddy conditions (Example 188), ORYSAT (Rice, Tebonnet)
Details: Rate 0.0320 kg/ha, rated three to four weeks after treatment
So I've got a bunch of compounds here, and I need their herbicidal effect rating, ORYSAT (rice tolerance) values.
Answers are plain numbers.

>>> assay_result("CCC(C#N)(CC)c1nsc2ccc(-n3c(=O)cc(C(F)(F)F)n(C)c3=O)cc12 [Example 445]")
3.0

Each of the following entries comes with a recorded value; kindly state herbicidal effect rating, ORYSAT (rice tolerance) for each.
1. COc1ccc(OC)c(-c2nsc3ccc(-n4c(=O)cc(C(F)(F)F)n(C)c4=O)cc23)c1 [Example 333]
2. CCCCC(=O)c1nsc2ccc(-n3c(=O)cc(C(F)(F)F)n(C)c3=O)cc12 [Example 431]
3. CC(C)S(=O)(=O)NC(=O)c1nsc2ccc(-n3c(=O)cc(C(F)(F)F)n(C)c3=O)cc12 [Example 362]
4. CCOc1cccc(-c2nsc3ccc(-n4c(=O)cc(C(F)(F)F)n(C)c4=O)cc23)c1 [Example 327]
5. COCc1nsc2cc(F)c(-n3c(=O)cc(C(F)(F)F)n(C)c3=O)cc12 [Example 378]
6. C#CCOC(=O)C(C)(C)Oc1ccc(C)cc1-c1nsc2ccc(-n3c(=O)cc(C(F)(F)F)n(C)c3=O)cc12 [Example 528]
7. COc1c(-c2nsc3ccc(-n4c(=O)cc(C(F)(F)F)n(C)c4=O)cc23)ccc(C)c1C [Example 267]

output:
1: 4.0; 2: 3.0; 3: 3.0; 4: 2.0; 5: 8.0; 6: 0.0; 7: 2.0
